test system: C33A; experiment: Primary qHTS to identify gynecologic anti-cancer compounds using libraries of approved drugs and bioactive compounds (AID 1345084); conditions: Gynecologic cancer cell panel viability, ATPlite luminescence, 48 h; series mostly up to 57.5 µM; further: nearly all actives have a fitted effect of over 55% in size
Records with an inconclusive call do not appear. Activity calls are given as the source filed them. The call rests on the fitted dose curve; in most records, active means well fitted cell-killing curve with a large enough effect; inconclusive means small, poorly fitted or top-dose-only effect, or effect the other way; inactive means flat fitted curve, though single readings scatter.
Choose one outcome from this list and give only that: 1.0 (active), 0.0 (inactive)

Below, 4 compounds whose answers are already recorded.
>>> discrete_label("N#Cc1nn(-c2c(Cl)cc(C(F)(F)F)cc2Cl)c(N)c1S(=O)C(F)(F)F (stereo unspecified)")
0.0
>>> discrete_label("COP(=S)(OC)Oc1ccc(S(N)(=O)=O)cc1")
0.0
>>> discrete_label("Oc1c(Br)cc(Br)cc1Br")
0.0
>>> discrete_label("NC(=O)OCCCc1ccccc1")
0.0

In: Outcome? Oc1ccc2[nH]cc(CCCCN3CC=C(c4ccccc4)CC3)c2c1
Out: 0.0

In: Outcome? C[C@]12CC[C@H]3[C@@H](CC=C4C[C@@H](O)CC[C@@]43C)[C@@H]1CC[C@@H]2O
Out: 0.0

In: Outcome? Clc1ccc(C(OCCN2CCCCC2)c2ccccc2)cc1 (stereo unspecified)
Out: 0.0

In: Outcome? C[C@H]1CNCCc2ccc(Cl)cc21
Out: 0.0

In: Outcome? CCC(=O)C(CCN(C)C)(c1ccccc1)c1ccccc1
Out: 0.0
